All values here come from the supplement of paper PMC6555819.

Reported PBM binding z-score values for a set of sequences
Tested on: PPARg:RXRa DBDmut IVT, anti-RXR (DBD mutation: RXRa K156A/R161A, NR concentration 270 nM, RXRa partner concentration 90 nM)
Assay: PBM binding z-score (relative to random genomic background probes); higher = stronger binding; sequences stand for … in GC…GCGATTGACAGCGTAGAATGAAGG
Quick one: just the number, no unit, thanks!

Below, 10 sequences whose answers are already recorded.
CCAGACAGGTGAGAAGGTAAGTCAGCCTCGATTA 0.908
CCTTACGGGTCACTCCAGGTTGTAGCATCGGAGT 2.42
TATACAGGGTCATAGGCCAGAGTACGAATGTCGA 2.32
TAGCCTAGGTCATTCAGGGGCCAGTTTAGAAAGC 1.47
GCTAGCAGGCCATTTGGGTCACTAAATGACGGGC 1.58
ACTAGAAGGCCAAGTTTGGGTCACTCAAACAAAG 0.0334
ACTAGTTGGTCAGCTGAGATCACACACAATTCGG 0.753
AGAATGAGGTTATACGTAGATCAGGGATGAAAGT 3.98
GGAACGAGGGCAAAATTGATAGCATCTGTCGACG 3.25
CGAACTAGGTCAGAACAGGACCGTGAAGGATGAT 7.33

// TGATATAGGTAAAGGTGAAAGTCGAACGATATGA : PBM binding z-score value = 4.83

// CCTTACGGGTCACTCCAGGCTATAGCATCGGAGT : PBM binding z-score value = 2.55

###

Test system: PPARg:RXRa 270nM:90nM, anti-RXR (NR concentration 270 nM, RXRa partner concentration 90 nM)
Assay: PBM binding z-score (relative to random genomic background probes); higher = stronger binding; sequences stand for … in GC…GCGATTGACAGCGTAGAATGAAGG
Outcome: T for PBM binding z-score of at least 3; F for anything lower.

TAGCCTGGGTCATGGGCCAGTATACCACGCGAAC T
ATCTCTAGGTAAAAGTTCAGTCAATCCCGAGGAT T
TCATATAGGTAAATGCTAGTTGAAAGTCCGATCT F

Identify whether the reported PBM binding z-score of the following sequence is 3 or greater: AGAACGAGGGCAATAAGTTGATAGCACGGGTGGC
F

Identify whether the reported PBM binding z-score of the following sequence is 3 or greater: CGTCCAAGGTCAGCCGGTCAGTGAAAGCGACGTG
T

Identify whether the reported PBM binding z-score of the following sequence is 3 or greater: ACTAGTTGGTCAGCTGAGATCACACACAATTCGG
F

Identify whether the reported PBM binding z-score of the following sequence is 3 or greater: CCGACTTGGGCAGAAAGGTTACCATACCATCCGG
F

Identify whether the reported PBM binding z-score of the following sequence is 3 or greater: TCATATAGGTAAAAGGTGAAATTCGGTGTGGTAA
T

Identify whether the reported PBM binding z-score of the following sequence is 3 or greater: GCTATTAGTTGAAAGGGTAACCGAATGATTCTCG
T

Identify whether the reported PBM binding z-score of the following sequence is 3 or greater: AGTACAGGGTCACTAGGCCAGAGTAGGTACGAAT
T

Identify whether the reported PBM binding z-score of the following sequence is 3 or greater: GGAACGAGGGCAAAGTTGATCGCATCTGTCGACG
T

Identify whether the reported PBM binding z-score of the following sequence is 3 or greater: TCAGACAGGTGAAGGTACCTCAGGTACGCAGTCG
F

Identify whether the reported PBM binding z-score of the following sequence is 3 or greater: CCTACTGGGCCATCGGGTCATTGATATCAACGTT
T

Identify whether the reported PBM binding z-score of the following sequence is 3 or greater: TCGATTAGTTGAAGGGCAACCGACGAGTCCGTTT
F

Identify whether the reported PBM binding z-score of the following sequence is 3 or greater: CCTATTAGTTTACCATAAGGGCAACCGAAGCTCG
F

Identify whether the reported PBM binding z-score of the following sequence is 3 or greater: GATACAAGGTCAAGGCCAGAGTACGCGTATTGAT
T

Identify whether the reported PBM binding z-score of the following sequence is 3 or greater: TCTTGTAGATCGGCAGGTTAAGAAAGCTGGCCAA
F

Identify whether the reported PBM binding z-score of the following sequence is 3 or greater: TATCCAGGGTCAAAGGCCAGAGTACGAATGTCGA
T
